# test summary: plasma stability test, human plasma
# Format: in vitro ADME
# applied conditions: Human plasma, 25 µM, 20min; read-out: Relative remaining compound content (%)
No end group written: not given here.
endpoint label: remaining at 20 min, 25 µM (%)

# sequence string, quantitative result
rows = [
    ("YGRKKRRQRRRKLSSIESDV [NA-1, YGRKKRRQR RRKLSSIESDV, reference compound]", 74.9),
]

---

# test summary: plasma stability test, rat plasma
# Type: in vitro ADME
# applied conditions: rat, plasma, Rat plasma, 25 µM, 30min; read-out: Relative remaining compound content (%)
No end group written: not given here.

# sequence string, value unit, remaining at 0.5 h, 25 µM
measured = [
    ("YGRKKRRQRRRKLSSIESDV [NA-1, YGRKKRRQR RRKLSSIESDV, reference compound]", "%", 73.3),
]

---

# test summary: pharmacokinetic study in rats, single intravenous bolus injection
# Assay type: in vivo, SD rats
# applied conditions: male, SD, rat, in vivo, iv, 3 nmol/g, rats, intravenous bolus injection over 10 min, 3 nmol/g, n = 3; read-out: Cmax
No end group written: not given here.

# sequence string, value unit, Cmax
data = [
    ("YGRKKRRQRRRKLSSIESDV [NA-1, YGRKKRRQR RRKLSSIESDV, reference compound]", "ng/mL", 3800),
]

---

# test summary: pharmacokinetic study of different doses in rats
# Assay type: in vivo, SD rats
# applied conditions: SD, rat, in vivo, intravenous bolus injection, 3 nmol/g, n = 3
No end group written: not given here.

# sequence string, half-life [min]
rows = [
    ("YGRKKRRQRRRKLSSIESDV [NA-1, YGRKKRRQR RRKLSSIESDV, reference compound]", 2.1),
]

---

# test summary: pharmacokinetic study in beagle dogs, single intravenous infusion
# Type: in vivo
# applied conditions: dog, in vivo; beagle dogs, intravenous infusion over 10 min, 1.2 nmol/g, Female
No end group written: not given here.

# sequence string, MRT (min)
rows = [
    ("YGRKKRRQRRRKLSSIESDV [NA-1, YGRKKRRQR RRKLSSIESDV, reference compound]", 9),
]

---

# assayed system: human PSD95-PDZ3 (Homo sapiens)
# Construct: PDZ3 (309-401, Flag-His-Avitag-TEVsite tag); made in house
# Sequence (P78352 309-401): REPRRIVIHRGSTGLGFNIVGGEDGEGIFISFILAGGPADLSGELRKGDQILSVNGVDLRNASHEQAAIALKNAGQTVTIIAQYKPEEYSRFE
# test summary: binding ELISA with Biotin-PDZ3
pEC50: −log10 of the molar value. No end group written: not given here.

# sequence string, assayed system, pEC50
measured = [
    ("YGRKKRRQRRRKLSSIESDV [NA-1, YGRKKRRQR RRKLSSIESDV, reference compound]", "human PSD95-PDZ3 (Homo sapiens)", "< 3.00"),
]

---

# test summary: pharmacokinetic study in beagle dogs, single intravenous infusion
# Format: in vivo
# applied conditions: dog, in vivo; beagle dogs, intravenous infusion over 10 min, 1.2 nmol/g, Female
No end group written: not given here.

# sequence string, AUC(0-inf) [ng·h/mL]
rows = [
    ("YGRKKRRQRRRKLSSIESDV [NA-1, YGRKKRRQR RRKLSSIESDV, reference compound]", 855),
]

---

# test summary: plasma stability test, rat plasma
# Format: in vitro ADME
# applied conditions: rat, plasma, Rat plasma, 25 µM, 120min; read-out: Relative remaining compound content (%)
No end group written: not given here.
endpoint label: remaining at 2 h, 25 µM (%)

# sequence string, endpoint label, quantitative result
records = [
    ("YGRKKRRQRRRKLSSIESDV [NA-1, YGRKKRRQR RRKLSSIESDV, reference compound]", "remaining at 2 h, 25 µM", 28.4),
]

---

# assayed system: human PSD95-PDZ2 (Homo sapiens)
# Construct: PDZ2 (155-249, the Flag-His-Avitag-TEVsite tag is italicized); made in house; host or cells: E. coli BL21-DE3 (PET vector)
# test summary: binding ELISA with Biotin-PDZ2
# Sequence (P78352 155-249): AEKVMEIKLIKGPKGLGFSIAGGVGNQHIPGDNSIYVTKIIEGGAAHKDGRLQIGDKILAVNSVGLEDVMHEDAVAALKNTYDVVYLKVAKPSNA
No end group written: not given here.

# sequence string, EC50, nM
rows = [
    ("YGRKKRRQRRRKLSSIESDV [NA-1, YGRKKRRQR RRKLSSIESDV, reference compound]", 83),
]

---

# test summary: pharmacokinetic study in beagle dogs, single intravenous infusion
# Format: in vivo
# applied conditions: dog, in vivo; beagle dogs, intravenous infusion over 10 min, 1.2 nmol/g, Male
No end group written: not given here.

# sequence string, MRT
records = [
    ("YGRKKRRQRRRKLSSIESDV [NA-1, YGRKKRRQR RRKLSSIESDV, reference compound]", "9.6 min"),
]

---

# test summary: pharmacokinetic study in beagle dogs, single intravenous infusion
# Type: in vivo
# applied conditions: dog, in vivo; beagle dogs, intravenous infusion over 10 min, 1.2 nmol/g, Male
No end group written: not given here.

# sequence string, AUC(0-inf)
records = [
    ("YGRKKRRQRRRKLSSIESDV [NA-1, YGRKKRRQR RRKLSSIESDV, reference compound]", "1.1 µg·h/mL"),
]

---

# test summary: plasma stability test, rat plasma
# Format: in vitro ADME
# applied conditions: rat, plasma, Rat plasma, 25 µM, 10min; read-out: Relative remaining compound content (%)
No end group written: not given here.

# sequence string, value unit, remaining at 10 min, 25 µM
measured = [
    ("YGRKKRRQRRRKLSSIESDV [NA-1, YGRKKRRQR RRKLSSIESDV, reference compound]", "%", 94.1),
]

---

# test summary: plasma stability test, human plasma
# Type: in vitro ADME
# applied conditions: Human plasma, 25 µM, 120min; read-out: Relative remaining compound content (%)
No end group written: not given here.
endpoint label: remaining at 2 h, 25 µM (%)

# sequence string, endpoint label, value unit, quantitative result
measured = [
    ("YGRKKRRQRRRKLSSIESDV [NA-1, YGRKKRRQR RRKLSSIESDV, reference compound]", "remaining at 2 h, 25 µM", "%", 25.1),
]

---

# test summary: pharmacokinetic study in beagle dogs, single intravenous infusion
# Type: in vivo
# applied conditions: dog, in vivo; beagle dogs, intravenous infusion over 10 min, 1.2 nmol/g, Male; read-out: Tmax
# Protocol: With standard beagle dogs as test animals, the pharmacokinetic behavior of a polypeptide compound administered via single intravenous infusion in beagle dogs (plasma) was studied. For polypeptide compound 22, two dose groups were set: 1.2 nmol/g and 0.4 nmol/g. […] The plasma concentrations of the test compounds were determined using the method in Test Example 3.4.3. Plasma concentration-time curves were plotted, and the pharmacokinetic parameters were calculated using PKSolver software.
No end group written: not given here.
endpoint label: Tmax (min)

# sequence string, quantitative result
data = [
    ("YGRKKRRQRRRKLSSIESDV [NA-1, YGRKKRRQR RRKLSSIESDV, reference compound]", 10.2),
]

---

# test summary: pharmacokinetic study in beagle dogs, single intravenous infusion
# Type: in vivo
# applied conditions: both sexes, beagle, dog, in vivo, iv; dogs, same dose (1.2 nmol/g); read-out: average T1/2 (converted)
No end group written: not given here.

# sequence string, half-life / min
data = [
    ("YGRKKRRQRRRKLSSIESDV [NA-1, YGRKKRRQR RRKLSSIESDV, reference compound]", 2.7),
]

---

# test summary: plasma stability test, human plasma
# Assay type: in vitro ADME
# applied conditions: Human plasma, 25 µM, 30min; read-out: Relative remaining compound content (%)
No end group written: not given here.

# sequence string, remaining at 0.5 h, 25 µM / %
data = [
    ("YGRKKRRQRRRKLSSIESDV [NA-1, YGRKKRRQR RRKLSSIESDV, reference compound]", 70.6),
]

---

# assayed system: human PSD95-PDZ2 (Homo sapiens)
# Construct: PDZ2 (155-249, the Flag-His-Avitag-TEVsite tag is italicized); made in house; host or cells: E. coli BL21-DE3 (PET vector)
# test summary: competitive ELISA, affinity for human PSD95-PDZ2
# Assay type: binding
pIC50: −log10 of the molar value. No end group written: not given here.

# sequence string, pIC50
records = [
    ("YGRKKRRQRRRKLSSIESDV [NA-1, YGRKKRRQR RRKLSSIESDV, reference compound]", 6.04),
]

---

# test summary: plasma stability test, human plasma
# Type: in vitro ADME
# applied conditions: Human plasma, 25 µM, 10min; read-out: Relative remaining compound content (%)
No end group written: not given here.

# sequence string, remaining at 10 min, 25 µM
rows = [
    ("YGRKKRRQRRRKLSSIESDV [NA-1, YGRKKRRQR RRKLSSIESDV, reference compound]", "76.4%"),
]

---

# test summary: pharmacokinetic study in beagle dogs, single intravenous infusion
# Format: in vivo
# applied conditions: dog, in vivo; beagle dogs, intravenous infusion over 10 min, 1.2 nmol/g, Male
No end group written: not given here.

# sequence string, Cmax / ng/mL
data = [
    ("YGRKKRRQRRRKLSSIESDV [NA-1, YGRKKRRQR RRKLSSIESDV, reference compound]", 6780),
]
